- Target Under Test: LIMK1KD (Homo sapiens, UniProt P53667)
- Construct: His6 (N, cleaved yes); made in house; host or cells: baculovirus; Sf9 for virus, TriEx insect cells for expression
- Sequence (P53667 330-637): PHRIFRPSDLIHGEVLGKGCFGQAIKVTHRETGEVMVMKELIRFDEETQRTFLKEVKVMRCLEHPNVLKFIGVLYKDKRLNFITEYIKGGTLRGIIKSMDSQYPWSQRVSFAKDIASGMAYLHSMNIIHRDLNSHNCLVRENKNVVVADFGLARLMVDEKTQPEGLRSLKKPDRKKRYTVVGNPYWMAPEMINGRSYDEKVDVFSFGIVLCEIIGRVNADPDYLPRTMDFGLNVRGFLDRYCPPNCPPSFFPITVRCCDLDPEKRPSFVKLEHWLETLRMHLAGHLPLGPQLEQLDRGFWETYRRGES
- Run Description: Differential (dynamic) scanning fluorimetry (DSF) assay, LIMK1KD
- Type: binding
- Test Settings: 2 µM LIMK1KD, compound 10 µM, single shot
Measured Metric: TM Shift LIMK1 (K)

Some molecules with recorded TM Shift LIMK1 (K):
{"columns": ["Molecule", "TM Shift LIMK1 (K)"],
 "data": [
  ["CCc1cncnc1N1CCN(Cc2nc3ccc(C(F)(F)F)cc3[nH]2)CC1 [PF-04708671]", "1.6 K"],
  ["C[C@@H](N)[C@H]1CC[C@H](C(=O)Nc2ccncc2)CC1.Cl.Cl [Y-27632 2HCl]", "-0.7 K"],
  ["COc1cc(O)c2c(c1)/C=C/C[C@H](O)[C@H](O)C(=O)/C=C\\C[C@H](C)OC2=O", "2.8 K"],
  ["CNC(=O)c1ccccc1Nc1nc(Nc2ccc(N3CCOCC3)cc2OC)ncc1Cl", "1.1 K"],
  ["Cc1cnc(NC(=O)Nc2cc(Br)c(C)cc2OC[C@@H]2CNCCO2)cn1 [Rabusertib]", "-1.1 K"]
]}

For record Cc1ccccc1CN1C(=O)C2=C(CCN(Cc3ccccc3)C2)N2CCN=C12 the listed TM Shift LIMK1 (K) is 0.5 K

Form field TM Shift LIMK1 (K), entry Nc1ccc(C(=O)Nc2cccc(-c3nc(N4CCOCC4)c4oc5ncccc5c4n3)c2)cn1 : 0.6 K

// sample O=C1NC(=O)/C(=C/c2ccc(-c3ccc(F)cc3O)o2)S1 , its TM Shift LIMK1 (K) was -0.1 K

Kindly note the recorded TM Shift LIMK1 (K) for Cn1cc(-c2ccc3nnc(C(F)(F)c4ccc5ncccc5c4)n3n2)cn1 , which is -0.1 K

TM Shift LIMK1 (K) reading for Cc1c(CN2CCN(C(=O)[C@H](C)O)CC2)sc2c(N3CCOCC3)nc(-c3cnc(N)nc3)nc12 [GDC-0980 (RG7422)] : 1.4 K

====

Listed here are molecules together with their documented TM Shift LIMK1 (K).
- Target Under Test: LIMK1KD (Homo sapiens)
- Construct: His6 (N, cleaved yes); made in house; host or cells: baculovirus; Sf9 for virus, TriEx insect cells for expression
- Run Description: Differential (dynamic) scanning fluorimetry (DSF) assay, LIMK1KD
- Type: binding
- Test Settings: 2 µM LIMK1KD, compound 10 µM, single shot
Reply numerically in K, unit not repeated.

Guide cases for TM Shift LIMK1 (K), answers given:
{"columns": ["Molecule", "Quantity Unit", "TM Shift LIMK1 (K)"],
 "data": [
  ["O=C1Nc2cc(Br)ccc2/C1=C1/Nc2ccccc2/C1=N\\O", "K", 0.2],
  ["Nc1cc(C(F)(F)F)c(-c2cc(N3CCOCC3)nc(N3CCOCC3)n2)cn1", "K", 0.6],
  ["COc1cc2c(Nc3ccc(NC(=O)c4ccccc4)cc3)ncnc2cc1OCCCN1CCOCC1", "K", 0.1],
  ["CC(C)c1cnn2c(NCc3ccccc3)cc(NCCCCCCN)nc12.Cl [BS-181 HCl]", "K", 0.7],
  ["Cc1ccc(-n2nc(C(C)(C)C)cc2NC(=O)Nc2ccc(OCCN3CCOCC3)c3ccccc23)cc1", "K", -0.1],
  ["CCn1c2ccccc2c2cc(Nc3ccnc(NCCCN4CCOCC4)n3)ccc21", "K", -0.1]
]}

Turning now to a further record.
get_value(item= CN1CCC(c2c(O)cc(O)c3c(=O)cc(-c4ccccc4Cl)oc23)C1CO (stereo not shown) , readout=TM Shift LIMK1 (K)) returns 0.7
